# tested system: Serine/threonine-protein kinase 4 (Homo sapiens) (UniProt Q13043);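 further: mean inhibition of MST1, reported as part of the GSK PKIS dataset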
# Sequence (Q13043 whole entry): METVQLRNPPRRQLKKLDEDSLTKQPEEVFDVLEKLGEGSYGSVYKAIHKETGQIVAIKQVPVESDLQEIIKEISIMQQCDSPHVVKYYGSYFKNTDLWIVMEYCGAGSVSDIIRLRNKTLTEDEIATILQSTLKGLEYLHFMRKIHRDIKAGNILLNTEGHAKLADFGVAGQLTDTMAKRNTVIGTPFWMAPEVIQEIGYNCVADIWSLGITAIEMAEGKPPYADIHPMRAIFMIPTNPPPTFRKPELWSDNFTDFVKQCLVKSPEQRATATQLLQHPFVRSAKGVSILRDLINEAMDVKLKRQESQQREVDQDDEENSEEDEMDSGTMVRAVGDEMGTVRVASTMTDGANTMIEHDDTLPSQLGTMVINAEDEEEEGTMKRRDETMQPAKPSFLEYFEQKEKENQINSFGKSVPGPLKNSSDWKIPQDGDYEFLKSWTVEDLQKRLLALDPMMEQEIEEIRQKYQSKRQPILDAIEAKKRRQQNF
# assay conditions: at 0.1 µM
Listing of entries alongside the reported inhibition.
A number alone suffices; assume %.

INSERT INTO measurements (given_smiles, tested_system, measurement_name, unit_symbol, reported_measurement) VALUES
  ('Cc1ccc(C(=O)NC2CCC2)cc1-c1ccc(C(=O)NCC2CC2)cc1', 'Serine/threonine-protein kinase 4 (Homo sapiens) (UniProt Q13043)', 'inhibition', '%', 3.29),
  ('Cc1nnc(-c2ccc(C)c(-c3ccc(C(=O)NCc4ccc(Cl)cc4)cc3)c2)o1', 'Serine/threonine-protein kinase 4 (Homo sapiens) (UniProt Q13043)', 'inhibition', '%', 3.28),
  ('C[C@@H](Oc1cc(-n2cnc3ccc(OC4CCN(C)CC4)cc32)sc1C(N)=O)c1ccccc1Cl', 'Serine/threonine-protein kinase 4 (Homo sapiens) (UniProt Q13043)', 'inhibition', '%', 4.68);

Input line: Using the record for Fc1ccc(-c2ncn(C3CCNCC3)c2-c2ccnc(Oc3ccc(F)c(F)c3)n2)cc1 , report its inhibition.
Output line: 7.1

Input line: Return reported inhibition; argument: NC(=O)c1cc(-c2ccc(F)cc2)cc(-c2ccncc2)c1N
Output line: 3.76

Input line: // inhibition lookup, key: NC(=O)c1cc(-c2ccncc2)cc(-c2ccccc2)c1N
Output line: 3.19

Input line: I would be grateful if you could share the reported inhibition for COc1ccc(C2=C(N3CCc4ccccc43)C(=O)NC2=O)cc1 .
Output line: 7.03

Input line: Reported inhibition, compound O=C1Nc2ccccc2/C1=C/Nc1ccc(-n2cncn2)cc1 : ____
Output line: 14.9

Input line: What measured inhibition goes with CCS(=O)(=O)c1ccc(OC)c(Nc2ncc(-c3ccccc3Cl)o2)c1 ?
Output line: 1.96
